# Test system: Plasmodium falciparum (3D7)
# Test Details: Anti-malarial screening (SybrGreen parasite growth assay)
# Type: cell-based
# Condition Details: Plasmodium falciparum, 3D7, dose response, dilution series 10 μM to 1 nM, 3D7; read-out: IC50(P. falciparum)
Reported Property: IC50 (nM)
Form entry: value (nM) — number only.

Examples with answers:
C[N+]1(Cc2ccccc2)CC[Si](c2ccccc2)(c2ccccc2)CC1; 1640
c1ccc(CN2CC[Si](c3ccccc3)(c3ccccc3)CC2)cc1; 1750

# ---- query compound ----
Return IC50 (reported value) for this compound: `C[N+]1(C)CC[Si](c2ccccc2)(c2ccccc2)CC1`
2460
